Tested system: human mAChR M1 (Homo sapiens)
Sequence (P11229 1-460): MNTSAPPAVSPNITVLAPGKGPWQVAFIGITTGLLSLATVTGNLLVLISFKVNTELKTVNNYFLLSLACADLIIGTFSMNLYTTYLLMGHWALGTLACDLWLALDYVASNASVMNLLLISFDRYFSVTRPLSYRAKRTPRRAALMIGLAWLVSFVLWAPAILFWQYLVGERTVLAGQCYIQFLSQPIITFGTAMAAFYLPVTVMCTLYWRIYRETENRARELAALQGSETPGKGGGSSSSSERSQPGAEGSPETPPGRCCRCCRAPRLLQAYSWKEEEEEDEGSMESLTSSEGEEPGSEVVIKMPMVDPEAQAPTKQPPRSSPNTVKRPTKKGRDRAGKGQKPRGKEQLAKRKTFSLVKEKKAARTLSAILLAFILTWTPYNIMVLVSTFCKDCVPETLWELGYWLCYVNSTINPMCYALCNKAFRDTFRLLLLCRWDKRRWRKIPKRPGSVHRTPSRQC
Assay comment: mAChR M1 cell-based functional assay (calcium mobilization), PAM mode: increase in the EC20 acetylcholine response
Experimental: Chinese hamster ovary (CHO-K1) cells stably expressing rat (r)M1 were purchased from the American Type Culture Collection and cultured according to their indicated protocol. […] Calcium flux was measured using the Functional Drug Screening System (FDSS) 6000 (Hamamatsu Corporation, Tokyo, Japan) as an increase in the fluorescent static ratio. […] Agonist activity was analyzed as a concentration-dependent increase in calcium mobilization upon compound addition. […]
pEC50: −log10 of the molar value.
Recorded metric: pEC50

> print(dat)
                                   compound  relation  measurement
1  [2H]C1([2H])c2ncccc2C(=O)N1Cc1c(F)cc(-c2cccc3nn(C([2H])([2H])[2H])cc23)cc1N(C)C         ≤         5.00
2  [2H]C1([2H])c2ncc(O)cc2C(=O)N1Cc1c(F)cc(-c2cccc3nn(C([2H])([2H])[2H])cc23)cc1F         =         6.91
3  [2H]C1([2H])c2ncccc2C(=O)N1Cc1c(F)cc(-c2ccc(OCC3CCCO3)c3nn(C)cc23)cc1F (stereo not shown)         =         6.15
4  [2H]C1([2H])c2ncccc2C(=O)N1Cc1c(F)cc(-c2cccc3nn(C)cc23)cc1Cl         =         6.50
5  [2H]C1([2H])c2ncccc2C(=O)N1Cc1c(F)cc(-c2ccc(OC3CCOC3)c3nn(C([2H])([2H])[2H])cc23)cc1F (stereo not shown)         =         6.37
6  [2H]C1([2H])c2ncccc2C(=O)N1Cc1ccc(-c2cnc3nn(C)cc3c2)cc1F         =         5.62
7  [2H]C1([2H])c2ncccc2C(=O)N1Cc1ccc(-c2ccc(F)c3nn(C)cc23)cc1C         =         6.31

---

Tested system: human mAChR M1 (Homo sapiens, UniProt P11229)
Assay comment: mAChR M1 cell-based functional assay (calcium mobilization), PAM mode: increase in the EC20 acetylcholine response
Recorded metric: EC50

> print(dat)
                                    molecule  recorded.metric  measurement
 1  [2H]C1([2H])c2ncccc2C(=O)N1Cc1c(F)cc(-c2cccc3nn(C([2H])([2H])[2H])cc23)cc1C(F)(F)F             EC50      1360 nM
 2  [2H]C1([2H])c2ncccc2C(=O)N1Cc1c(F)cc(-c2cc(F)c(F)c3nn(C)cc23)cc1F             EC50       195 nM
 3  [2H]C1([2H])c2ncccc2C(=O)N1Cc1c(F)cc(-c2cc(F)cc3nn(C)cc23)cc1F             EC50       222 nM
 4  [2H]C1([2H])c2ncccc2C(=O)N1Cc1ccc(-c2cc3cn(C)nc3cc2F)cc1F             EC50      3600 nM
 5  [2H]C1([2H])c2ncccc2C(=O)N1Cc1c(C)cc(-c2ccc(C)c3nn(C)cc23)cc1F             EC50       433 nM
 6  [2H]C1([2H])c2ncccc2C(=O)N1Cc1c(F)cc(-c2cccc3nn(C)cc23)cc1N1CCC1             EC50      2690 nM
 7  [2H]C([2H])([2H])c1cc2c(-c3cc(F)c(CN4C(=O)c5cccnc5C4([2H])[2H])c(F)c3)cccn2n1             EC50       745 nM
 8  [2H]C1([2H])c2ncccc2C(=O)N1Cc1ccc(-c2ccc3nn(C)cc3c2C)cc1             EC50   > 10000 nM
 9  [2H]C1([2H])c2ncccc2C(=O)N1Cc1c(F)cc(-c2ccc(OCCOC)c3nn(C([2H])([2H])[2H])cc23)cc1F             EC50       162 nM
10  [2H]C1([2H])c2ncccc2C(=O)N1Cc1c(F)cc(-c2ccc(OCCOC3CC3)c3nn(C)cc23)cc1F             EC50       777 nM
11  [2H]C1([2H])c2ncccc2C(=O)N1Cc1c(F)cc(-c2cc(F)c(Cl)c3nn(C)cc23)cc1F [Compound 77]             EC50      1350 nM
12  [2H]C1([2H])c2ncccc2C(=O)N1Cc1ccc(-c2ccc(OC)c3nn(C([2H])([2H])[2H])cc23)cc1C             EC50       288 nM
13  [2H]C1([2H])c2ncccc2C(=O)N1Cc1c(F)cc(-c2cnc3nn(C([2H])([2H])[2H])cc3c2)cc1F             EC50       680 nM
14  [2H]C1([2H])c2ncccc2C(=O)N1Cc1c(F)cc(-c2ccc(OCC3(C#N)CC3)c3nn(C)cc23)cc1F             EC50       193 nM
15  [2H]C1([2H])c2ncccc2C(=O)N1Cc1c(F)cc(-c2ccc(Cl)c3nn(C([2H])([2H])[2H])cc23)cc1F             EC50       170 nM
16  [2H]C1([2H])c2ncccc2C(=O)N1Cc1c(F)cc(-c2ccc(O)c3nn(C)cc23)cc1F             EC50       123 nM
17  [2H]C1([2H])c2ncccc2C(=O)N1Cc1c(F)cc(-c2cn(C)c(=O)c3c2cnn3C)cc1F             EC50      2230 nM
18  [2H]C1([2H])c2ncccc2C(=O)N1Cc1ccc(-c2ccc(OCC)c3nn(C)cc23)cc1F             EC50       381 nM
19  [2H]C1([2H])c2ncccc2C(=O)N1Cc1c(F)cc(-c2ccc(OCCOC)c3nn(C)cc23)cc1Cl             EC50       322 nM
20  [2H]C1([2H])c2ncccc2C(=O)N1Cc1c(F)cc(-c2ccc3c(cnn3C([2H])([2H])[2H])c2)cc1F             EC50      1410 nM
21  [2H]C1([2H])c2ncccc2C(=O)N1Cc1c(F)cc(-c2cccc3c2cnn3C)cc1F             EC50      2420 nM
22  [2H]C1([2H])c2ncccc2C(=O)N1Cc1c(F)cc(-c2ccc(OC(C)C)c3nn(C([2H])([2H])[2H])cc23)cc1F             EC50       285 nM
23  [2H]C1([2H])c2ncccc2C(=O)N1Cc1c(F)cc(-c2cc(F)cc3c2cnn3C([2H])([2H])[2H])cc1F             EC50   > 10000 nM
24  [2H]C1([2H])c2ncccc2C(=O)N1Cc1c(F)cc(-c2ccc(OC3CCOCC3)c3nn(C)cc23)cc1F             EC50       288 nM
25  [2H]C1([2H])c2ncccc2C(=O)N1Cc1c(F)cc(-c2cccc3nn(C)cc23)cc1OCC(C)C             EC50       865 nM
26  [2H]C([2H])([2H])Oc1cnc2c(c1)C(=O)N(Cc1ccc(-c3cccc4nn(C)cc34)cc1F)C2([2H])[2H]             EC50       120 nM
27  [2H]C1([2H])c2ncccc2C(=O)N1Cc1c(F)cc(-c2ccc(OCS(C)(=O)=O)c3nn(C)cc23)cc1F             EC50       391 nM
28  [2H]C1([2H])c2ncccc2C(=O)N1Cc1c(F)cc(-c2ccc(OC3CCOC3)c3nn(C)cc23)cc1F (stereo not shown)             EC50       486 nM
